protocol-summary: qHTS for identification of novel therapeutic agents for treatment of microphthalmiaassociated transcription factor (MiT) renal cell carcinoma (RCC) (AID 1963991);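 further: curves scaled with 100% = DMSO viability and 0% = empty wells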
experimental-context: TFE3-RCC UOK109 viability, CellTiter-Glo, 48 h; measured here: UOK109 Z-AUC; stronger effect = lower value
Records with an inconclusive call do not appear.
Listed next: entries and their corresponding z-score.
Reply with the value as a number alone.

{"columns": ["compound", "z-score"],
 "data": [
  ["NCCS(=O)(=O)O", 0.929]
]}

According to the records, this compound CCC1(C)CC(=O)NC1=O (centres undefined) displays z-score of 0.867

According to the records, this compound Cc1ccc(C(=O)Nc2ccc(S(=O)(=O)O)c3cc(S(=O)(=O)O)cc(S(=O)(=O)O)c23)cc1NC(=O)c1cccc(NC(=O)Nc2cccc(C(=O)Nc3cc(C(=O)Nc4ccc(S(=O)(=O)O)c5cc(S(=O)(=O)O)cc(S(=O)(=O)O)c45)ccc3C)c2)c1 displays z-score of 0.0489

---

protocol-summary: Cell Viability - LYMP2-017 (AID 972);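 further: cells exposed to compound for 24 hours at 37 °C; nearly all actives have a fitted effect of over 55% in size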
experimental-context: LYMP2-017 lymphoblastoid cell viability; series mostly up to 92.2 µM
Records with an inconclusive call do not appear. Active and inactive are the calls of the source. The call rests on the fitted dose curve; in most records, active means well fitted cell-killing curve with a large enough effect; inconclusive means small, poorly fitted or top-dose-only effect; inactive means flat fitted curve, though single readings scatter.
readout: outcome

{"columns": ["molecule", "outcome"],
 "data": [
  ["CCC1(c2ccccc2)C(=O)NCNC1=O", "inactive"],
  ["NCCS(=O)(=O)O", "inactive"],
  ["CC(C)C(=O)Nc1ccc([N+](=O)[O-])c(C(F)(F)F)c1", "inactive"],
  ["COc1ccc2[nH]cc(CCNC(C)=O)c2c1", "inactive"],
  ["N[C@@H](Cc1c[nH]c2ccc(O)cc12)C(=O)O", "inactive"],
  ["O=c1c(-c2ccc(O)cc2)coc2cc(O)cc(O)c12", "inactive"]
]}

According to the records, this molecule CC(C)NCC(O)c1ccc(O)c(O)c1 (centres undefined) displays outcome of inactive

According to the records, this molecule Cc1ccc(-c2cc(C(F)(F)F)nn2-c2ccc(S(N)(=O)=O)cc2)cc1 displays outcome of inactive

According to the records, this molecule NS(=O)(=O)c1cc2c(cc1Cl)NCNS2(=O)=O displays outcome of inactive

According to the records, this molecule Clc1ccc(C(c2ccccc2Cl)C(Cl)Cl)cc1 (centres undefined) displays outcome of inactive

---

target-of-assay: Glutathione peroxidase 1 (Homo sapiens) (UniProt P07203)
Sequence (P07203 whole entry, looked up): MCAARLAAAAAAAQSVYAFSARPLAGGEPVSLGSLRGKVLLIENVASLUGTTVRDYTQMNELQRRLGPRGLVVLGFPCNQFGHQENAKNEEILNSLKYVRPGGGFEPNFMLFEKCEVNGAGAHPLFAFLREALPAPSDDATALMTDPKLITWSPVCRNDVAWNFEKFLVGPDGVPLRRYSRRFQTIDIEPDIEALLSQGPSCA
protocol-summary: Primary qHTS Assay for Inhibitors of Recombinant Selenoprotein Glutathione Peroxidase 1 (GPX1) (AID 1845191); further: nearly all actives have a fitted effect of over 65% in size
experimental-context: recombinant GPX1, GR-coupled NADPH fluorescence, 15 min; series mostly up to 48.8 µM
Results filed as inconclusive are left out. Calls of active or inactive are those of the source. Calls follow the shape of the dose curve; as a rule, active = well fitted inhibition curve with a large enough effect; inconclusive = small, poorly fitted or top-dose-only effect; inactive = flat fitted curve, though single readings scatter.
readout: outcome

Solved cases below.
{"columns": ["compound", "observed-result"],
 "data": [
  ["COc1ccccc1OCCNCC(O)COc1cccc2[nH]c3ccccc3c12 (stereo unspecified)", "inactive"],
  ["COc1cc2c(c(OC)c1OC)-c1ccc(OC)c(=O)cc1[C@@H](NC(C)=O)CC2", "inactive"],
  ["CC(CCc1ccc(O)cc1)NCCc1ccc(O)c(O)c1 (stereo unspecified)", "inactive"],
  ["Cn1c(=O)c2[nH]cnc2n(C)c1=O", "inactive"],
  ["NCCCCCC(=O)O", "inactive"]
]}

Now for another entry.
According to the records, this compound C[C@H]1c2cccc(O)c2C(O)=C2C(=O)[C@]3(O)C(O)=C(C(N)=O)C(=O)[C@@H](N(C)C)[C@@H]3[C@@H](O)[C@@H]21 displays outcome of inactive

---

protocol-summary: Cytometric Cell-Based qHTS for Inhibitors of the mTORC1 Signaling Pathway in MEF (Tsc2-/-, p53-/-) Cells (AID 2660);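 further: Tsc2 and p53 null MEFs carrying empty vector with compound for 24 h; percent of cells above a phospho-rpS6 to PI ratio cutoff in each well; plate controls were DMSO for no effect and rapamycin for full effect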
experimental-context: mTORC1 pathway cytometry; series mostly up to 38.3 µM
Records with an inconclusive call do not appear. Active and inactive are the calls of the source. Calls follow the shape of the dose curve; as a rule, active = well fitted curve in the direction sought with a large enough effect; inconclusive = small, poorly fitted or top-dose-only effect, or another doubt; inactive = no such curve, though single readings can be large or run the other way.
readout: outcome

Solved cases below.
{"columns": ["compound", "outcome"],
 "data": [
  ["Cc1ccc(C(=O)Nc2ccc(S(=O)(=O)O)c3cc(S(=O)(=O)O)cc(S(=O)(=O)O)c23)cc1NC(=O)c1cccc(NC(=O)Nc2cccc(C(=O)Nc3cc(C(=O)Nc4ccc(S(=O)(=O)O)c5cc(S(=O)(=O)O)cc(S(=O)(=O)O)c45)ccc3C)c2)c1", "inactive"],
  ["CN1CCC(=C2c3ccccc3CC(=O)c3sccc32)CC1", "inactive"],
  ["Nc1ccn([C@H]2CC[C@@H](CO)O2)c(=O)n1", "inactive"],
  ["O=c1c(O)c(-c2ccc(O)c(O)c2)oc2cc(O)cc(O)c12", "inactive"],
  ["COc1cc2nc(N3CCN(C(=O)c4ccco4)CC3)nc(N)c2cc1OC", "inactive"]
]}

Now for another entry.
According to the records, this compound CC(C)NCC(O)c1ccc(O)c(O)c1 (stereo not drawn) displays outcome of inactive

---

Tested on: Tov112D
protocol-summary: Primary qHTS to identify gynecologic anti-cancer compounds using libraries of approved drugs and bioactive compounds (AID 1345084); further: nearly all actives have a fitted effect of over 55% in size
experimental-context: Gynecologic cancer cell panel viability, ATPlite luminescence, 48 h; series mostly up to 57.5 µM
Records with an inconclusive call do not appear. Active and inactive are the calls of the source. Calls follow the shape of the dose curve; as a rule, active = well fitted cell-killing curve with a large enough effect; inconclusive = small, poorly fitted or top-dose-only effect, or effect the other way; inactive = flat fitted curve, though single readings scatter.
readout: outcome

{"columns": ["structure-string", "target-of-assay", "observed-result"],
 "data": [
  ["Cc1cnc(C(=O)NCCc2ccc(S(=O)(=O)NC(=O)NC3CCCCC3)cc2)cn1", "Tov112D", "inactive"],
  ["Cc1cc(C(C)(C)C)c(O)c(C)c1CC1=NCCN1", "Tov112D", "inactive"],
  ["Cc1cn([C@H]2C[C@H](N=[N+]=[N-])[C@@H](CO)O2)c(=O)[nH]c1=O", "Tov112D", "inactive"]
]}

---

Test system: CP215
protocol-summary: qHTS profiling for inhibitors of Plasmodium falciparum proliferation (AID 504749); further: nearly all actives have a fitted effect of over 60% in size
experimental-context: P. falciparum in erythrocytes, SYBR Green DNA, 72 h; series mostly up to 28.7 µM
Inconclusive results are not listed. The source made the active and inactive calls. Calls follow the shape of the dose curve; as a rule, active = well fitted inhibition curve with a large enough effect; inconclusive = small, poorly fitted or top-dose-only effect; inactive = flat fitted curve, though single readings scatter.
Please state which outcome applies, choosing from active, inactive

Some solved cases for reference:
{"columns": ["compound", "assigned-category"],
 "data": [
  ["CCOC(=O)C(C)(C)Oc1ccc(Cl)cc1", "inactive"],
  ["Cc1cn([C@H]2C[C@H](N=[N+]=[N-])[C@@H](CO)O2)c(=O)[nH]c1=O", "inactive"],
  ["CC(C)(C)C(=O)Oc1ccc(S(=O)(=O)Nc2ccccc2C(=O)NCC(=O)O)cc1", "inactive"],
  ["O=C1N(c2ccccc2)c2ccccc2C1(Cc1ccncc1)Cc1ccncc1", "inactive"],
  ["Clc1ccc2nsnc2c1NC1=NCCN1", "inactive"],
  ["Cc1ccc(-c2cc(C(F)(F)F)nn2-c2ccc(S(N)(=O)=O)cc2)cc1", "active"],
  ["CCCNCC(O)COc1ccccc1C(=O)CCc1ccccc1 (stereo unspecified)", "active"],
  ["CCC1(c2ccccc2)C(=O)NCNC1=O", "inactive"]
]}

GET /call?item= O=C1c2c(O)ccc(O)c2C(=O)c2c(NCCNCCO)ccc(NCCNCCO)c21 returns the recorded outcome of this test. active

GET /call?item= CC[C@@]1(O)C(=O)OCc2c1cc1n(c2=O)Cc2cc3c(CN(C)C)c(O)ccc3nc2-1 returns the recorded outcome of this test. active

GET /call?item= CCCCc1oc2ccccc2c1C(=O)c1cc(I)c(OCCN(CC)CC)c(I)c1 returns the recorded outcome of this test. active

---

Test system: MCC-13
protocol-summary: qHTS assay to identify novel small-molecules to repurpose for Merkel cell carcinoma treatment (AID 1296009); further: nearly all actives have a fitted effect of over 60% in size
experimental-context: MCC and control cell lines, CellTiter-Glo viability, 72 h; series mostly up to 46 µM
Results filed as inconclusive are left out. The source made the active and inactive calls. The call rests on the fitted dose curve; in most records, active means well fitted inhibition curve with a large enough effect; inconclusive means small, poorly fitted or top-dose-only effect; inactive means flat fitted curve, though single readings scatter.

{"columns": ["structure-string", "outcome"],
 "data": [
  ["Cc1ccc(C(=O)Nc2ccc(S(=O)(=O)O)c3cc(S(=O)(=O)O)cc(S(=O)(=O)O)c23)cc1NC(=O)c1cccc(NC(=O)Nc2cccc(C(=O)Nc3cc(C(=O)Nc4ccc(S(=O)(=O)O)c5cc(S(=O)(=O)O)cc(S(=O)(=O)O)c45)ccc3C)c2)c1", "inactive"],
  ["Cn1c(=O)c2c(ncn2C)n(C)c1=O", "inactive"],
  ["CCOC(=O)Nc1ccc(NCc2ccc(F)cc2)nc1N", "inactive"]
]}

---

Test system: CP250
protocol-summary: qHTS profiling for inhibitors of Plasmodium falciparum proliferation (AID 504749); further: nearly all actives have a fitted effect of over 60% in size
experimental-context: P. falciparum in erythrocytes, SYBR Green DNA, 72 h; series mostly up to 28.7 µM
Records with an inconclusive call do not appear. Activity calls are given as the source filed them. The call rests on the fitted dose curve; in most records, active means well fitted inhibition curve with a large enough effect; inconclusive means small, poorly fitted or top-dose-only effect; inactive means flat fitted curve, though single readings scatter.
Please state which outcome applies, choosing from true (1) = active, false (0) = inactive

Some solved cases for reference:
{"columns": ["compound", "assigned-category"],
 "data": [
  ["NCCc1cnc[nH]1", "false (0)"],
  ["CN(C)CCCN1c2ccccc2CCc2ccc(Cl)cc21", "false (0)"],
  ["CC(COc1ccccc1)N(CCCl)Cc1ccccc1 (stereo not drawn)", "false (0)"],
  ["N[C@@H](Cc1c[nH]c2ccc(O)cc12)C(=O)O", "false (0)"],
  ["COc1ccc2[nH]cc(CCNC(C)=O)c2c1", "false (0)"]
]}

GET /call?item= CN1CCC(=C2c3ccccc3C=Cc3ccccc32)CC1 returns the recorded outcome of this test. false (0)
